Origin of measurements: patent US20220259235A1

Target: EGFR Δ19del/T790M/C797S (Homo sapiens, UniProt P00533, T790M/C797S, form not given)
Sequence (P00533 with tags, fused parts or gaps DEL746-750/T790M/C797S, form open): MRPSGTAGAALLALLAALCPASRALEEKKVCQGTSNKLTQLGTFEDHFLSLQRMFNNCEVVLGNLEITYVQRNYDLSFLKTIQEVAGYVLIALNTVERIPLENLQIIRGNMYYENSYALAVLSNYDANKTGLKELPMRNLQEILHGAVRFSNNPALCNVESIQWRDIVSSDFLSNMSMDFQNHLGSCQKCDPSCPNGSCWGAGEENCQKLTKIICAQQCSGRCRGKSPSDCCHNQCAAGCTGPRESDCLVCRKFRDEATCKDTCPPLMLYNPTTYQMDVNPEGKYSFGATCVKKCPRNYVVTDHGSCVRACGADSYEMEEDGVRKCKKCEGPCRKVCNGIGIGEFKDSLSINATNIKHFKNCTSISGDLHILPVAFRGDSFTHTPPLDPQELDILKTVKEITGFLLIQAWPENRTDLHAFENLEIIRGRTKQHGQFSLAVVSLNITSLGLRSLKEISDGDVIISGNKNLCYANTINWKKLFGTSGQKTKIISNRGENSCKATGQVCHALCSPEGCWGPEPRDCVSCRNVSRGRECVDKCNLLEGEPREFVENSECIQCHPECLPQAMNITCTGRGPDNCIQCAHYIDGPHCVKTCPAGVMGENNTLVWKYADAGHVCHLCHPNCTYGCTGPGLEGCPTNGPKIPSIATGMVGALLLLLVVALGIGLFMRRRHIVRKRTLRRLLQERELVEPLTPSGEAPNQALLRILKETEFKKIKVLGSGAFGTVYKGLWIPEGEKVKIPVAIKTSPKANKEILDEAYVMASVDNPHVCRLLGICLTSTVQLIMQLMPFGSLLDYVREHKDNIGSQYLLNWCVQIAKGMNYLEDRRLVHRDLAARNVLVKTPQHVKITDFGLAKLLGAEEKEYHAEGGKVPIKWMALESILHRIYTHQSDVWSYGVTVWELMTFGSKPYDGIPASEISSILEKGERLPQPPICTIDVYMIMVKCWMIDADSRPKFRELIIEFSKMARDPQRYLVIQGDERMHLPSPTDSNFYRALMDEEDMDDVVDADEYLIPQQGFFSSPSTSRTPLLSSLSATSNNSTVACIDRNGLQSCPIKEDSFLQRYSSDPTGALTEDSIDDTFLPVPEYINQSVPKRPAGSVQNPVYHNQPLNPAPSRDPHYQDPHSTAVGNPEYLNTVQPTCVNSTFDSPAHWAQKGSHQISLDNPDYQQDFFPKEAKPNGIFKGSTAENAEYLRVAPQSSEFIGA
Assay: EGFR Δ19del/T790M/C797S kinase test (mobility shift, Caliper EZ Reader)
Assay type: biochemical
Conditions: kinase enzymatic activity, numeric values
Listing of entries alongside the reported IC50.
Only the number, expressed in nM, is required.

COc1cc(N2CCC(N(C)C)CC2)c(-c2cn[nH]c2)cc1Nc1ncc(Cl)c(Nc2ccc3nccnc3c2P(C)(C)=O)n1 : 0.3
COc1cc(N2CCN(C3CCCC3)CC2)c(-c2cnn(C)c2)cc1Nc1ncc(Br)c(Nc2ccc3nc(C4CC4)ccc3c2P(C)(C)=O)n1 : 1.3

// query What value of IC50 has been recorded for this entry: `COc1cc(N2CCN(C3CCCC3)CC2)c(-c2cnn(C)c2)cc1Nc1ncc(Br)c(Nc2ccc(C)c(C)c2P(C)(C)=O)n1`
// result 0.2

====

Target: Ba/F3-Δ19del/T790M/C797S (Homo sapiens, UniProt P00533, T790M/C797S, cells depend on it, form not given)
Sequence (P00533 with tags, fused parts or gaps DEL746-750/T790M/C797S, form open): as the sequence (P00533 with tags, fused parts or gaps DEL746-750/T790M/C797S, form open) above
Test: Ba/F3-Δ19del/T790M/C797S cell proliferation assay (CellTiter Glo, 72 h)
Assay type: cell-based
Details: CTG, numeric values, read-out: BaF3 Δ19del/T790M/C797S IC50
measured endpoint: GI50 (nM)
Only the number, expressed in nM, is required.

CCn1cc(-c2cc(Nc3ncc(Br)c(Nc4ccc(C)c(C)c4P(C)(C)=O)n3)c(OC)cc2N2CCOCC2)cn1 : 0.7
COc1cc(N2CCC(N(C)C)CC2)c(-c2cn[nH]c2)cc1Nc1ncc(Cl)c(Nc2ccc3nccnc3c2P(C)(C)=O)n1 : 60.4
COc1cc(N2CCC(N3CCN(C)CC3)CC2)c(-c2cnn(C)c2)cc1Nc1ncc(Cl)c(Nc2ccc3nc(C4CC4)ccc3c2P(C)(C)=O)n1 : 1
COc1cc(N2CCC(N(C)C)CC2)c(-c2cnn(C)c2)cc1Nc1ncc(Cl)c(Nc2ccc3nccnc3c2P(C)(C)=O)n1 : 6.5
COc1cc(N2CCC(N3CCN(C)CC3)CC2)c(-c2cnn(C)c2)cc1Nc1ncc(Cl)c(Nc2ccc3nccnc3c2P(C)(C)=O)n1 : 2.1

Alright, here's another molecule for you.
// query What value of GI50 has been recorded for this entry: COc1cc(N2CCC(N3CCN(C)CC3)CC2)c(C)cc1Nc1ncc(Br)c(Nc2ccc3nccnc3c2P(C)(C)=O)n1 [A, reference compound]
// result 22

====

Target: Ba/F3-L858R/T790M/C797S (Homo sapiens, UniProt P00533, T790M/C797S/L858R, cells depend on it)
Sequence (P00533 whole entry T790M/C797S/L858R): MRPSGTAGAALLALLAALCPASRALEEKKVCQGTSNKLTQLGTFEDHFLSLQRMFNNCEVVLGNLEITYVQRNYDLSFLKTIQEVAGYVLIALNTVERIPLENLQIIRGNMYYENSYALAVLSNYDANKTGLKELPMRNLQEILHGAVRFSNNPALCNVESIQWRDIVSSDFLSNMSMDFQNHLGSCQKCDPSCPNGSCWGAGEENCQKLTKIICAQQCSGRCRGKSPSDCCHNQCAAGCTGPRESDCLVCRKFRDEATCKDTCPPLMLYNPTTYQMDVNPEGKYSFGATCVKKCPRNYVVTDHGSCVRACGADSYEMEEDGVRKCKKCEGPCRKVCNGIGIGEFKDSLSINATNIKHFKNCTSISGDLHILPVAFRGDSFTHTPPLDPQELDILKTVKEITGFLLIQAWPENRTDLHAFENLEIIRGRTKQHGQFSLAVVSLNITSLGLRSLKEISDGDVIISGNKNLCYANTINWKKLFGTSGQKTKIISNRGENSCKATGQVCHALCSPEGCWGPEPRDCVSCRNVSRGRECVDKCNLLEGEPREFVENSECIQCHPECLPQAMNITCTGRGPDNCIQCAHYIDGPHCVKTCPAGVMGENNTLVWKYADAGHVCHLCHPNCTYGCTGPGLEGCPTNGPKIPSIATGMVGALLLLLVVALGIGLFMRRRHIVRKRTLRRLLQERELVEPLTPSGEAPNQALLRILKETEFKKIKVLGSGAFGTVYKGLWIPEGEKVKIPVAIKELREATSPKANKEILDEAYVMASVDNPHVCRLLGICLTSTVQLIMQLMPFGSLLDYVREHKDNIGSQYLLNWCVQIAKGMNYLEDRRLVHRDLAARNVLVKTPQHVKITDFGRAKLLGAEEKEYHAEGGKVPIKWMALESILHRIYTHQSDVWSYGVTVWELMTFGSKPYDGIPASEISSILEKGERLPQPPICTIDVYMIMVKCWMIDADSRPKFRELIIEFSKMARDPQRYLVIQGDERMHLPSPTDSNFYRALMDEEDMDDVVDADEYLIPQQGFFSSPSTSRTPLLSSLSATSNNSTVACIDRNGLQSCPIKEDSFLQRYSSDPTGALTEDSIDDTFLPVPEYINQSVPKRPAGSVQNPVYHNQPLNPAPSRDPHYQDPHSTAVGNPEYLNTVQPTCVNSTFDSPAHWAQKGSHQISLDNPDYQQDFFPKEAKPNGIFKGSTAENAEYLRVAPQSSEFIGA
Test: Ba/F3-L858R/T790M/C797S cell proliferation assay (CellTiter Glo, 72 h)
Type: cell-based
Conditions: CTG, numeric values, read-out: BaF3 L858R/T790M/C797S IC50
In plain terms, low GI50, meaning strictly below 7 nM, gives y, and everything else gives n.

CCn1cc(-c2cc(Nc3ncc(Br)c(Nc4ccc(C)c(C)c4P(C)(C)=O)n3)c(OC)cc2N2CCC(N3CCN(C)CC3)CC2)cn1 : n
COc1cc(N2CCC(N3CCN(C)CC3)CC2)c(-c2cnn(C)c2)cc1Nc1ncc(Cl)c(Nc2ccc3nc(C4CC4)ccc3c2P(C)(C)=O)n1 : y
COc1cc(N2CCOCC2)c(-c2cnn(C)c2)cc1Nc1ncc(Cl)c(Nc2ccc3nccnc3c2P(C)(C)=O)n1 : n
COc1cc(N2CCC(N(C)C)CC2)c(-c2cnn(C)c2)cc1Nc1ncc(Cl)c(Nc2ccc3nccnc3c2P(C)(C)=O)n1 : n
COc1cc(N2CCC(N3CCN(C)CC3)CC2)c(-c2cnn(C)c2)cc1Nc1ncc(Cl)c(Nc2ccc3nccnc3c2P(C)(C)=O)n1 : y

// query Please check: GI50 for COc1cc(N2CCN3CCCCC3C2)c(-c2cnn(C)c2)cc1Nc1ncc(Cl)c(Nc2ccc3nccnc3c2P(C)(C)=O)n1 (stereo in doubt) , strictly under 7 nM or not?
// result n

// query Please check: GI50 for `COc1cc(N2CCC(N3CCCCC3)CC2)c(-c2cnn(C)c2)cc1Nc1ncc(Cl)c(Nc2ccc3nccnc3c2P(C)(C)=O)n1` , strictly under 7 nM or not?
// result y

// query Please check: GI50 for `CCn1cc(-c2cc(Nc3ncc(Br)c(Nc4ccc5nccnc5c4P(C)(C)=O)n3)c(OC)cc2N2CCC(N3CCN(C)CC3)CC2)cn1` , strictly under 7 nM or not?
// result y

// query Please check: GI50 for COc1cc(N2CCC(N3CCN(C)CC3)CC2)c(C)cc1Nc1ncc(Br)c(Nc2ccc3nccnc3c2P(C)(C)=O)n1 [A, reference compound] , strictly under 7 nM or not?
// result n

// query Please check: GI50 for `COc1cc(N2CCN(C3CCCC3)CC2)c(-c2cnn(C)c2)cc1Nc1ncc(Br)c(Nc2ccc3nccnc3c2P(C)(C)=O)n1` , strictly under 7 nM or not?
// result y

// query Please check: GI50 for `COc1cc(N2CCC(N3CCN(C)CC3)CC2)c(-c2cnn(C(F)F)c2)cc1Nc1ncc(Br)c(Nc2ccc3nccnc3c2P(C)(C)=O)n1` , strictly under 7 nM or not?
// result y

====

Target: Ba/F3-L858R/T790M/C797S (Homo sapiens, UniProt P00533, T790M/C797S/L858R, cells depend on it)
Experiment: Ba/F3-L858R/T790M/C797S cell proliferation assay (CellTiter Glo, 72 h)
Format: cell-based
Conditions: CTG, class symbols, read-out: BaF3 L858R/T790M/C797S IC50
Experimental: Cell line: Ba/F3 cells with stable overexpression of Δ19del/T790M/C797S or L858R/T790M/C797S mutant genes, named Ba/F3-Δ19del/T790M/C797S and Ba/F3-L858R/T790M/C797S, and A431 EGFR wild-type cell line. RPMI 1640 and 10% FBS and 1% PS; _EM, 10% PBS and 1% PS […] c) Read luminous signal value with Perkin Elmer reader. […] The data were analyzed by GraphPad Prism 6.0 software to obtain the fitting curve of compound activity. […]
measured endpoint: GI50

Some solved cases for reference:
COc1cc(N2CCC(N3CCCCC3)CC2)c(-c2cnn(C)c2)cc1Nc1ncc(Br)c(Nc2ccc(C)c(C)c2P(C)(C)=O)n1 [Compound 15] : ≤ 50 nM
COc1cc(N2CCC(N3CCN(C)CC3)CC2)c(-c2cnn(C)c2)cc1Nc1ncc(Br)c(Nc2ccc3nccnc3c2P(C)(C)=O)n1 [Compound 10] : ≤ 50 nM
COc1cc(N2CCC(N3CCN(C)CC3)CC2)c(-c2cnn(C)c2)cc1Nc1ncc(Br)c(Nc2ccc(C)c(C)c2P(C)(C)=O)n1 [Compound 14] : ≤ 50 nM
COc1cc(N2CCC(N3CCCC3)CC2)c(-c2cnn(C)c2)cc1Nc1ncc(Cl)c(Nc2ccc(C)c(C)c2P(C)(C)=O)n1 [Compound 6] : ≤ 50 nM
COc1cc(N2CCC3(CC2)CN(C)C3)c(-c2cnn(C)c2)cc1Nc1ncc(Cl)c(Nc2ccc(C)c(C)c2P(C)(C)=O)n1 [Compound 7] : 50 to 100 nM

Alright, here's another molecule for you.
// query What value of GI50 has been recorded for this entry: COc1cc(N2CCOCC2)c(-c2cnn(C)c2)cc1Nc1ncc(Br)c(Nc2ccc3nccnc3c2P(C)(C)=O)n1 [Compound 16]
// result ≤ 50 nM

====

Listing of entries alongside the reported pIC50.
System: A431 EGFR wild-type cell line
Experiment: A431 EGFR wild-type cell proliferation assay (CellTiter Glo, 72 h)
Assay type: cell-based
Conditions: Homo sapiens, A-431, CTG, read-out: A431 EGFR WT IC50
A value of pIC50 is the negative decimal logarithm of a concentration given in moles per litre.

CCn1cc(-c2cc(Nc3ncc(Br)c(Nc4ccc(C)c(C)c4P(C)(C)=O)n3)c(OC)cc2N2CCOCC2)cn1 [Compound 21] : 6.33
COc1cc(N2CCC(N3CCN(C)CC3)CC2)c(-c2cnn(C)c2)cc1Nc1ncc(Cl)c(Nc2ccc3nccnc3c2P(C)(C)=O)n1 [Compound 1] : 6.95
COc1cc(N2CCC(N3CCN(C)CC3)CC2)c(-c2cnn(C)c2)cc1Nc1ncc(Cl)c(Nc2ccc3nc(C4CC4)ccc3c2P(C)(C)=O)n1 [Compound 28] : 6.70

Alright, here's another compound for you.
// query What value of pIC50 has been recorded for this entry: CCn1cc(-c2cc(Nc3ncc(Br)c(Nc4ccc(C)c(C)c4P(C)(C)=O)n3)c(OC)cc2N2CCC(N3CCN(C)CC3)CC2)cn1 [Compound 22]
// result 5.49

====

Biological target: EGFR Δ19del/T790M/C797S (Homo sapiens, UniProt P00533, T790M/C797S, form not given)
Assay: EGFR Δ19del/T790M/C797S kinase test (mobility shift, Caliper EZ Reader)
Type: biochemical
Conditions: kinase enzymatic activity, numeric values
Listing of entries alongside the reported pIC50.
A value of pIC50 is the negative decimal logarithm of a concentration given in moles per litre.

Some solved cases for reference:
COc1cc(N2CCC(N(C)C)CC2)c(-c2cnn(C)c2)cc1Nc1ncc(Cl)c(Nc2ccc3nccnc3c2P(C)(C)=O)n1 : 9.70
COc1cc(N2CCOCC2)c(-c2cnn(C)c2)cc1Nc1ncc(Cl)c(Nc2ccc3nccnc3c2P(C)(C)=O)n1 : 9.52
CCn1cc(-c2cc(Nc3ncc(Br)c(Nc4ccc(C)c(C)c4P(C)(C)=O)n3)c(OC)cc2N2CCOCC2)cn1 : 9.52
COc1cc(N2CCC(N3CCN(C)CC3)CC2)c(-c2cnn(C)c2)cc1Nc1ncc(Cl)c(Nc2ccc3nccnc3c2P(C)(C)=O)n1 : 9.52

Alright, here's another compound for you.
// query What value of pIC50 has been recorded for this entry: `COc1cc(N2CCC(N3CCN(C)CC3)CC2)c(-c2cnn(C(F)F)c2)cc1Nc1ncc(Br)c(Nc2ccc3nccnc3c2P(C)(C)=O)n1`
// result 9.52
